assay: Mouse IV PK study; conditions: in vivo, i.v., HPLC, read-out: Half-life of clearance from the blood stream
resultType: half-life

(Q) Any idea what its half-life is? The compound is CC(CC[C@@H](OS(=O)(=O)O)C(C)C)[C@H]1CCC2C3C(CC[C@@]21C)[C@@]1(C)CC[C@H](NCCCNCCCCN)C[C@@H]1C[C@H]3O (stereo partly shown)
(A) ~35 min

* * *

system: human microvascular cells; assay: Endothelial cord formation assay; format: cell-based; settings: 0.1 μg/ml; further: key: + = Inhibition of angiogenesis; − = No inhibition of angiogenesis; T = Toxic; *= cell rounding @ 10 µg/ml
resultType: Effect on endothelial cord formation

Consider the worked cases shown below.
compound	Effect on endothelial cord formation
CO[C@@H]1[C@H](OC(=O)/C=C/C=C/C=C/C=C/C(=O)O)CC[C@]2(CO2)[C@H]1[C@@]1(C)O[C@@H]1CC=C(C)C [Fumagillin, reference compound]	−
CC(C)CCCC(C)[C@H]1CCC2C3CC[C@H]4C[C@@H](NCCCNCCCCNCCCN)CC[C@]4(C)C3CC[C@@]21C (stereo partly drawn)	+
CC(CCC(=O)O)[C@H]1CCC2C3C(CC[C@@]21C)[C@@]1(C)CC[C@@H](NCCCNCCCCNCCCN)C[C@H]1C[C@H]3O (stereo partly drawn)	−
CC(CCC(=O)O)[C@H]1CCC2C3C(CC[C@@]21C)[C@@]1(C)CC[C@H](NCCCNCCCCNCCCN)C[C@H]1C[C@H]3O (stereo partly drawn)	−

(Q) Give the measured Effect on endothelial cord formation of CC(CC[C@@H](OS(=O)(=O)O)C(C)C)[C@H]1CCC2C3C(CC[C@@]21C)[C@@]1(C)CC[C@H](NCCCNCCCCN)C[C@@H]1C[C@H]3O (stereo partly drawn) .
(A) +

(Q) I am curious: what Effect on endothelial cord formation value has been reported for COC(=O)CCC(C)[C@H]1CCC2C3C(CC[C@@]21C)[C@@]1(C)CC[C@@H](NCCN)C[C@H]1C[C@H]3O (stereo partly drawn) ?
(A) −

(Q) Item COC(=O)CCC(C)[C@H]1CCC2C3C(CC[C@@]21C)[C@@]1(C)CC[C@H](NCCCNCCCCNCCCN)C[C@H]1C[C@H]3O (stereo partly drawn) has what recorded Effect on endothelial cord formation?
(A) −

(Q) Request the reported Effect on endothelial cord formation associated with CC(CCC(=O)O)[C@H]1CCC2C3CC[C@H]4C[C@@H](NCCCNCCCCN)CC[C@]4(C)C3CC[C@@]21C (stereo partly drawn)
(A) +

(Q) Entry CC(CCC(=O)O)[C@H]1CCC2C3C(CC[C@@]21C)[C@@]1(C)CC[C@H](NCCN)C[C@H]1C[C@H]3O (stereo partly drawn) : reported Effect on endothelial cord formation = ?
(A) −
